// provenance: paper PMC4912613

System: GNF156R (PfCARL L830V, S1076I and M81I, parent Dd2)
METHOD_NOTES: Cross-resistance EC50 assay, GNF156R
Format: cell-based
STATED_CONDITIONS: Plasmodium falciparum, SYBR green 72 hour assay, asynchronized parasites, 96-well or 1536-well format
Entries whose EC50 is below 1 µM take 1.0; entries at or above 1 µM take 0.0.

Previously resolved entries follow.
{"COMPOUND": "COc1cc2cc(C(=O)Nc3ccccc3)c(N)nc2cc1OC", "ANSWER_LABEL": 1.0}
{"COMPOUND": "Brc1ccc(Nc2nc3ccccc3nc2Nc2ccc(Br)cc2)cc1", "ANSWER_LABEL": 1.0}

In plain terms, does O=C(NC(c1ccccc1)c1ccc2cccnc2c1O)c1ccccc1 (centres unmarked) come in under 1 µM for EC50?
1.0

In plain terms, does Cc1ccc(Oc2ncccc2C(=O)Cc2cccc3cccnc23)c(C)c1 come in under 1 µM for EC50?
0.0
